- target.system: FGFR1 (UniProt P11362)
- Sequence (P11362 whole entry, looked up): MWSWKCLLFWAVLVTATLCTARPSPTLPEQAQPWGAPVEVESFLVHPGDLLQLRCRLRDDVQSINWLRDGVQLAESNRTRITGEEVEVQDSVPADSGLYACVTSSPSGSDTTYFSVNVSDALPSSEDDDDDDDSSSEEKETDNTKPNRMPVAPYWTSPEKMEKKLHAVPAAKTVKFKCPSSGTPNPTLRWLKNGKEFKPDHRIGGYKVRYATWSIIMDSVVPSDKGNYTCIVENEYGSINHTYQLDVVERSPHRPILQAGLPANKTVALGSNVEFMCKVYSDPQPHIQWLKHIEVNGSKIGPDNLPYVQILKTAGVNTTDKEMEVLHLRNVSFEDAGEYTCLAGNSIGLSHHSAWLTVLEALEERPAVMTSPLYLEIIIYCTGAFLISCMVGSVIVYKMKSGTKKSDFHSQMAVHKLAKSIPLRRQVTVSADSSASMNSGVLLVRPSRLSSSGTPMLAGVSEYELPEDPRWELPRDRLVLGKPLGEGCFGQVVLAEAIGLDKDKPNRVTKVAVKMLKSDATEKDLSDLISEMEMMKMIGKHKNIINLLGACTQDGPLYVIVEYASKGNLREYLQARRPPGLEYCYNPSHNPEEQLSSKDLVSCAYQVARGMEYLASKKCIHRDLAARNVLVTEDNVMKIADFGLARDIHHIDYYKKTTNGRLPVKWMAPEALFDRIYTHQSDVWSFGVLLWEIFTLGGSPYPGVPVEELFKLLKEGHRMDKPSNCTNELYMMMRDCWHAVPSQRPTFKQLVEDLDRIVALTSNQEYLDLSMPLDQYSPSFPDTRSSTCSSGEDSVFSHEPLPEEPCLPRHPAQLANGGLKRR
- assay.comment: phosphorylation enrichment, bacterial display (enrichment ratio); higher = better substrate or ligand; peptides without Tyr show the background;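 further: 11-residue human phosphosite peptides and single-mutation variants displayed on the E. coli surface, counted by deep sequencing, each peptide's frequency after selection divided by its frequency in the unselected input library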;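 further: frequency after pTyr selection over input frequency; kinase dosed for 20-30% of maximal phosphorylation in three min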
Binary classification by phosphorylation enrichment, with 0.7 as an inclusive lower bound for satisfied; all other cases are not satisfied.

# entry.sequence, cat
rows = [
    ("RHPYFFAPELL [ALB_Y174_Y174F]", "satisfied"),
    ("IRTIDYRFTVW [IDS_Y497_YF]", "not satisfied"),
    ("SHISGYATLRR [RAPH1_Y1226]", "not satisfied"),
    ("IMVFVYSRVFQ [ADRB2_Y219]", "not satisfied"),
    ("EDEGLYTVRVP [MYOM3_Y343_M344T]", "not satisfied"),
]

Ask: Hi team, for KVGPGYLGSGG [RET_Y826] , is the recorded phosphorylation enrichment at or above 0.7?
Result: not satisfied

Ask: Record LEEFQYIGELQ [MSH2_Y856_S860L] ; criterion: phosphorylation enrichment no lower than 0.7. Met?
Result: satisfied

Ask: Decide: phosphorylation enrichment of VEDQYYRVDCY [FHL1_Y208_C209R] >= 0.7?
Result: satisfied

Ask: Can QTPVLYAMLFH [MPZ_Y220_D224Y_YF] be said to have phosphorylation enrichment at or above 0.7?
Result: satisfied

Ask: Threshold query (phosphorylation enrichment >= 0.7) on TPRNTYKMTSV [MKI67_Y849_L854V]
Result: not satisfied

Ask: Is reported phosphorylation enrichment greater than or equal to 0.7 here: MDDPRYGVCPL [ZNF100_Y6_M8V]
Result: not satisfied

Ask: hey, is phosphorylation enrichment for this one >= 0.7? SLLPDYEDEEE [ZNF830_Y159]
Result: not satisfied

Ask: Exam item: decide whether the reported phosphorylation enrichment for QEKKGYFEDRC [GLUL_Y336_R341C] is at least 0.7.
Result: satisfied

Provenance of the data: the supplement of paper PMC10065799
